System: FRK
Conditions: concentration: 1 μM, replicates: in singlicate; n = 1;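 also: KINOMEscan kinase panel screen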
Quick reference: %Inh of the listed items.
Provide only the numeric value, understood in %.

> print(dat)
                                   compound  target.or.test.system  assay.metric  unit.name  val
1  Nc1cccc(-c2ccc3c(N)n[nH]c3c2)n1 [GSK2192730]                    FRK          %Inh          %    0
2  CC(=O)c1c(C)c2cnc(Nc3ccc(N4CCNCC4)cn3)nc2n(C2CCCC2)c1=O                    FRK          %Inh          %    7
3  CC(=O)c1c(C)c2cnc(Nc3ccn(C)n3)nc2n(C2CCCC2)c1=O                    FRK          %Inh          %   28
4  NS(=O)(=O)c1cccc(N/C=C2\C(=O)Nc3ccc(S(=O)(=O)Cc4c(Cl)cccc4Cl)cc32)c1 [GSK398099]                    FRK          %Inh          %    0

Now consider a different compound.
Memo: Cc1ccc(NC(=O)Nc2ccccc2F)cc1-c1ccc(C(=O)Nc2ccncc2)cc1 [GSK1398477] , reported %Inh: 72

---

System: CAMKK1
Settings: concentration: 1 μM, replicates: in singlicate; n = 1
Assay Metric: %Inh (%)
Return type: number; implicit unit %.

> print(dat)
                                   molecule  target.or.test.system  val
1  COc1ccc(Nc2nccc(N3CCC(NC(=O)c4cc5ccccc5s4)C3)n2)cc1 (stereo not drawn)                 CAMKK1   11
2        CCCCc1nn2ncccc2c1-c1ccnc(NC2CC2)n1                 CAMKK1    0
3     Fc1ccc(-c2nn3cccc(F)c3c2-c2ccncc2)cc1                 CAMKK1    0

Now for the molecule whose %Inh we want.
Per the record, O=C1NC(=O)C(c2ccc(Cl)cc2)=C1Nc1ccc(O)cc1 has %Inh of 0

---

Listing of recorded %Inh by entry.
System: MAST1
Settings: concentration: 1 μM, replicates: in singlicate; n = 1
Numeric answer only, unit % assumed.

For orientation, consider the following solved cases.
> print(dat)
                                   compound  unit.name  val
1  COc1ccc(Nc2nccc(-c3ccc(NC(=O)c4cc5cc(F)ccc5[nH]4)cc3)n2)cc1 [GSK1229496]          %    0
2  Cc1ccc(NC(=O)Nc2ccccc2)cc1-c1ccc(C(=O)Nc2ccncc2)cc1 [GSK1398471]          %    0
3  O=C(Nc1n[nH]c2nc(-c3cccs3)c(Br)cc12)C1CC1 [SB-735297]          %   26
4    CCn1c(-c2ccccc2)nc2cnccc21 [SB-733416]          %    0

API: the following record is the query input.
Reported %Inh of COc1ccc(CSc2nnc(-c3ccc4ncsc4c3)o2)cc1C(F)(F)F : 0

---

Below, each of the compounds is paired with its reported %Inh value.
System: MLK1
Construct: gene MAP3K9
Conditions: concentration: 1 μM, replicates: in singlicate; n = 1
Write the number in % without appending the unit.

> print(dat)
                                   compound  target.or.test.system  assay.metric  val
1   Cc1cccc2c(-c3ccncn3)c(-c3ccc(F)cc3)nn12                   MLK1          %Inh    0
2  COC(=O)C(NC(=O)NC1CCN(c2ccnc(Nc3ccc(F)cc3)n2)C1)c1ccccc1 (stereo not shown)                   MLK1          %Inh    0
3  Nc1nccc(-c2c(-c3ccc(F)cc3)ncn2C2CCN(Cc3ccccc3)CC2)n1                   MLK1          %Inh   11

CC(=O)c1c(C)c2cnc(Nc3ccc(N4CCNCC4)cn3)nc2n(C2CCCC2)c1=O has a reported %Inh of 0

%Inh reading for Cc1ccc(-c2nc(Nc3ccncc3)c3ccccc3n2)s1 : 6

Summary for this compound, Cc1ccccc1-c1cc(-c2c[nH]nc2-c2ccccn2)ccn1 : %Inh is 0

---

Test system: PHKG1
Conditions: concentration: 1 μM, replicates: in singlicate; n = 1
// values below are reported %Inh

Measured %Inh of Cl.Cl.Cl.N#Cc1ccc(CCNc2nccc(-c3cccc(CN4CCNCC4)c3)n2)cc1 [GSK2137462] : 25%

The recorded %Inh for Cn1cnc2c(N)ncnc21 [SKF-97623] is 0%

Query CCn1c(-c2ccccc2)nc2cnccc21 [SB-733416] yields %Inh of 0%

Please fill in: %Inh reported for Cc1ccc(NC(=O)c2ccc(Cl)cc2)cc1-c1ccc(C(=O)Nc2ccncc2)cc1 [GSK1398467] = 0%

Kindly note the recorded %Inh for Fc1ccc(-c2nc[nH]c2-c2ccncc2)cc1 [SB-217360] , which is 0%

For record CNc1cc(-c2ccc3c(N)n[nH]c3c2)nc(N)n1 [GSK2224810] the listed %Inh is 0%

Value of measured %Inh for the entry CC(C)c1ccc(O)cc1Nc1ccnc2ccc(C(F)(F)F)cc12 [GW482059] : 0%

# %Inh of O=C(Nc1n[nH]c2nc(-c3ccco3)c(Br)cc12)C1CCN(Cc2ccccc2)C1.O=C(O)[C@H](O)[C@@H](O)C(=O)O (stereo not drawn) [SB-742034] = 3%

Briefly, %Inh measured for CC[C@@H]1CO[C@H](C(=O)Nc2ccccc2)CN1c1cc(-c2ccc3c(N)n[nH]c3c2)nc(NC)n1 [GSK2376236] : 0%

---

Listing: %Inh of selected molecules
Test system: MARK1
Settings: concentration: 1 μM, replicates: in singlicate; n = 1

Solved cases (5 shown):
> print(dat)
                                   molecule  val
1  Cc1ccc(NC(=O)Nc2ccccc2F)cc1-c1ccc(C(=O)Nc2ccncc2)cc1 [GSK1398477]   8%
2  O=C(Nc1n[nH]c2cc(-c3ccsc3)ccc12)C1CC1 [SB-732932]   0%
3  COc1ccc(Nc2nccc(N3CCC(NC(=O)c4cc5ccccc5s4)C3)n2)cc1 (stereo not shown) [GSK1379738]   0%
4  Cc1c(Cn2c(C)c(C)n3c(=O)cc(N4CCOCC4)nc23)cccc1C(F)(F)F [GSK2328680]   0%
5  Cc1ccc(-c2nc(Nc3ccncc3)c3ccccc3n2)s1 [GSK189015]   7%

Kindly note: MARK1, COC(=O)C(NC(=O)NC1CCN(c2ccnc(Nc3ccc(F)cc3)n2)C1)c1ccccc1 (stereo not shown) [GSK1379712] , %Inh value reported: 0%

COc1ccc2cc(-c3nc(-c4ccccc4C(C)C)[nH]c3-c3ccncc3)ccc2c1 [SB-660566] on MARK1 gives %Inh = 7%

The molecule COc1ccc(Nc2nccc(N3CCC(NC(=O)C(C)c4ccc(Cl)cc4)CC3)n2)cc1 (stereo not shown) [GSK1379812] , when measured on MARK1, yielded %Inh of 15%

// returns %Inh for Nc1nccc(-c2c(-c3ccc(F)cc3)ncn2C2CCN(Cc3ccccc3)CC2)n1 [SB-219980] with MARK1; value = 5%

Measured on MARK1, Cl.Cl.Cl.N#Cc1ccc(CCNc2nccc(-c3cccc(CN4CCNCC4)c3)n2)cc1 [GSK2137462] has a documented %Inh of 0%

Summary line: Fc1ccc(-c2nc3n(c2-c2ccncc2)CCS3)cc1 [GI98581] , MARK1, reported %Inh = 0%

MARK1 %Inh of c1ccc(-c2ccnc3[nH]ccc23)cc1 [SB-693578] is 100%

Readout %Inh for CC(=O)c1c(C)c2cnc(Nc3ccc(N4CCNCC4)cn3)nc2n(C2CCCC2)c1=O , test system MARK1, was 6%

Hey, MARK1 data for Cc1ccc(NC(=O)c2ccc(Cl)cc2)cc1-c1ccc(C(=O)Nc2ccncc2)cc1 [GSK1398467] : %Inh came out at 36%

Simply: Cc1cnc(N)c(/C=C/c2cncc(C(=O)NCCc3ccc(Cl)cc3Cl)c2)c1.Cl [GSK190937] , MARK1, %Inh = 0%

Entry CCc1ccc(-c2ccc3c(c2)-c2n[nH]cc2S(=O)(=O)N3C)cc1 : %Inh on MARK1 = 0%

Item O=c1cc(N2CCOCC2)nc2n(Cc3cccc(Cl)c3Cl)c3ccccc3n12 [GSK2299009] was tested on MARK1; the reported %Inh is 7%

Bench note, MARK1: entry COc1ccc(CSc2nnc(-c3ccc4c(c3)CCO4)o2)cc1 , its %Inh = 0%

Result for CCn1c(-c2ccccc2)nc2cnccc21 [SB-733416] , tested on MARK1, %Inh: 13%
